For each of the molecules below, state its IC50.
Experimental Target: human PIM2 (Homo sapiens (Human))
Sequence (Q9P1W9 whole entry): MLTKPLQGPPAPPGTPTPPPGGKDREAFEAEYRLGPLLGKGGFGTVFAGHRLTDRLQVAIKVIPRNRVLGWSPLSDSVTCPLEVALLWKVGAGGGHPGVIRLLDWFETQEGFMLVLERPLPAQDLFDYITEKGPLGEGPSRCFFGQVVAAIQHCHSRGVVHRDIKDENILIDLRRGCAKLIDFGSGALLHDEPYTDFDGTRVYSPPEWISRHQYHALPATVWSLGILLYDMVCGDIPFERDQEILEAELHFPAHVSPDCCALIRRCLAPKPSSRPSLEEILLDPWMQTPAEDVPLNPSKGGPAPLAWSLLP
Method Notes: PIM2 kinase inhibition assay: Dowex technique
Type: biochemical
Measurement Setup: ATP 4 μM, Aktide 5 μM, enzyme 1.5 nM; read-out: PIM-2 IC50
Counter-ions that a name gives are not always drawn.

Consider the worked cases shown below.
{"Molecule": "NCCC1CNC(=O)c2cc(-c3cccc(C(F)(F)F)c3)c(-c3ccc(CO)cc3)n21 (stereo not shown) [Compound 38, hydrochloride]", "Experimental Target": "human PIM2 (Homo sapiens (Human))", "IC50": "102 nM"}
{"Molecule": "CN(C)c1ccc(-c2c(-c3cccc(OC(F)(F)F)c3)cc3n2[C@@H](CCN)CNC3=O)cc1 [Compound 115, hydrochloride]", "Experimental Target": "human PIM2 (Homo sapiens (Human))", "IC50": "46 nM"}
{"Molecule": "NCC[C@H]1CNC(=O)c2cc(-c3cccc(OC(F)(F)F)c3)c(-c3ccc(C=O)cc3)n21 [Compound 97, hydrochloride]", "Experimental Target": "human PIM2 (Homo sapiens (Human))", "IC50": "22 nM"}
{"Molecule": "CN(C)Cc1ccc(-c2c(-c3cccc(OC(F)(F)F)c3)cc3n2C(CCCl)CNC3=O)cc1 (stereo not shown) [Compound 70, trifluoroacetate]", "Experimental Target": "human PIM2 (Homo sapiens (Human))", "IC50": "113 nM"}
{"Molecule": "NCC[C@H]1CNC(=O)c2cc(-c3cccc(OC(F)(F)F)c3)c(-c3ccsc3)n21 [Compound 85, hydrochloride]", "Experimental Target": "human PIM2 (Homo sapiens (Human))", "IC50": "69 nM"}
{"Molecule": "NCC[C@H]1CNC(=O)c2cc(-c3cccc(OC(F)(F)F)c3)c(-c3cccc(Cl)c3)n21 [Compound 126, hydrochloride]", "Experimental Target": "human PIM2 (Homo sapiens (Human))", "IC50": "21 nM"}

Now take the following molecule into account.
Recorded IC50 (molecule NCC[C@H]1CNC(=O)c2cc(-c3cccc(OC(F)(F)F)c3)c(-c3ccccc3)n21 ): 38 nM
